assayText: NCI Yeast Anticancer Drug Screen. Data for the cln2 rad14 strain (AID 165);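 further: 0% = growth equal to vehicle treated cultures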
studyConditions: S. cerevisiae cln2 rad14 strain, at 50.0 µM, stronger effect = higher value
This is part of a sample that, as a whole, favours compounds with a hit. Of some 79,000 tested, about 15% had one in any assay.
testReadout: growth inhibition (%)

compound=CN(C)c1ccc2c(c1)Cc1ccccc1-2 unitsymbol=% observed=-24.1
compound=C[CH2][Sn]([Cl])([CH2]C)[CH2]C unitsymbol=% observed=80.8
compound=CCCCCCCC(=O)[O][Hg][c]1ccccc1 unitsymbol=% observed=99.5
compound=CCC[CH2][Pb]([CH2]CCC)([CH2]CCC)[n]1ccnc1 unitsymbol=% observed=91.6
compound=O=C(Nc1ccc(S(=O)(=O)Nc2ccc(N=Nc3ccc(N=Nc4ccccc4)cc3)cc2)cc1)C(N1CC1)(N1CC1)N1CC1 unitsymbol=% observed=9.05
compound=CSc1sc2ccccc2[s+]1 unitsymbol=% observed=10.6
compound=CCC[CH2][Sn]([CH2]CCC)([CH2]CCC)[CH2]CC[N+](C)(CCO)CCO.CS(=O)(=O)[O-] unitsymbol=% observed=99.3
compound=O=C(O)c1ccc([As](=O)(O)O)cc1 unitsymbol=% observed=-35.2
compound=CC(=O)[C-](I)C(C)=O.CC(=O)[C-](I)C(C)=O.CC(=O)[C-](I)C(C)=O.[Ru+3] unitsymbol=% observed=7.45
compound=O=c1[nH]cc(N=Cc2ccccc2Cl)c(=O)[nH]1.[Cl][Pt][Cl] unitsymbol=% observed=1.95
compound=O=[N+]([O-])c1cc(-c2ccc([As](=O)(O)O)cc2)ccc1[As](=O)(O)O unitsymbol=% observed=9.5
compound=CCCCN1C(=O)C(=C/C=C/C=C2\Oc3ccccc3N2CCCS(=O)(=O)O)C(=O)N(CCCC)C1=S unitsymbol=% observed=15.7
compound="C1CC2OC2CC1C1CO1 (stereo not given)" unitsymbol=% observed=-8.4
compound=O=P1(N(CCCl)CCCl)Oc2c(Cl)cc(Cl)c(Cl)c2Cc2c(Cl)c(Cl)cc(Cl)c2O1 unitsymbol=% observed=0.25
compound="CC1=CC2CC(C)=C(CC[C@]3(C)CC[C@H]([C@@H](C)C(=O)O)OO3)C(C)(C)C2CC1 (stereo not given in full)" unitsymbol=% observed=91.2
